Each entry below carries its reported MIC.
# Test system: E. coli (Ec)
# test: Broth microdilution minimum inhibitory concentration (MIC), CLSI
# Assay type: cell-based
# condition-summary: Escherichia coli, growth medium with sodium bicarbonate, read-out: E. coli + bicarb MIC
# Experimental: A certified BSL-2 laboratory was used for testing. Compounds were evaluated using the broth microdilution minimum inhibitory concentration (MIC) and minimum bactericidal concentration (MBC) assays defined by Clinical and Laboratory Standards Institute (CLSI) in the M26-A guideline against S. aureus (Sa), E. coli (Ec), K. pneumoniae (Kp), A. baumannn (Ab), E. faecalis (Ef) and P. aeruginosa (Pa). […]

compound | tested-on | MIC
CCC(N)(CC)C(=O)N1CCN(C(=O)Nc2ccn(-c3ccc(CN4C[C@@H]5[C@@H](N)[C@@H]5C4)cc3)c(=O)n2)CC1 [Compound 224] | E. coli (Ec) | < 8 µg/mL
CC(Cc1ccc(-n2ccc(NC(=O)N3CCN(C(=O)C(C)(C)N)CC3)nc2=O)cc1)N(C)C1CC2(CC(N)C2)C1 (stereo not shown) [Compound 191] | E. coli (Ec) | < 8 µg/mL
N[C@@H]1[C@H]2CN(Cc3ccc(-n4ccc(NC(=O)N5C[C@@H]6[C@@H](N)[C@@H]6C5)nc4=O)cc3)C[C@@H]12 [Compound 249] | E. coli (Ec) | 8 to 32 µg/mL
CCN(C(C)Cc1ccc(-n2ccc(NC(=O)N3CCN(C(=O)C(C)(C)N)CC3)nc2=O)cc1)C12CC(CN)(C1)C2 (stereo not shown) [Compound 201] | E. coli (Ec) | < 8 µg/mL
CC(Cc1ccc(-n2ccc(NC(=O)N3CCN(C(=O)[C@H](C)N)CC3)nc2=O)cc1)N1C[C@@H]2[C@@H](CN)[C@@H]2C1 (stereo partly shown) [Compound 222] | E. coli (Ec) | < 8 µg/mL

Form field: reported MIC of CC(Cc1ccc(-n2ccc(NC(=O)N3CCN(C(=O)[C@H]4C[C@H](N)C4)CC3)nc2=O)cc1)N1C[C@@H]2[C@@H](CN)[C@@H]2C1 (stereo partly shown) [Compound 234]
< 8 µg/mL

// same read-out, input: CC(Cc1ccc(-n2ccc(NC(=O)N3CCN(C(=O)CN)CC3)nc2=O)cc1)N1C[C@@H]2[C@@H](CN)[C@@H]2C1 (stereo partly shown) [Compound 227]
< 8 µg/mL

// same read-out, input: CCC(Cc1ccc(-n2ccc(NC(=O)N3CCN(C(=O)C(C)(C)N)CC3)nc2=O)cc1C(F)(F)F)N1C[C@@H]2[C@@H](CN)[C@@H]2C1 (stereo partly shown) [Compound 211]
< 8 µg/mL

// same read-out, input: CC(Cc1ccc(-n2ccc(NC(=O)N3CCN(C(=O)C(C)(C)CN)CC3)nc2=O)cc1)N1C[C@@H]2[C@@H](CN)[C@@H]2C1 (stereo partly shown) [Compound 233]
< 8 µg/mL

// same read-out, input: CN(Cc1ccc(-n2ccc(NC(=O)N3CCN(C(=O)C(C)(C)N)CC3)nc2=O)cc1)C12CCC(N)(CC1)CC2 [Compound 165]
< 8 µg/mL

// same read-out, input: CC(Cc1ccc(-n2ccc(NC(=O)N3CCN(C(=O)C(C)(C)N)CC3)nc2=O)cc1)NC12CC(N)(C1)C2 (stereo not shown) [Compound 202]
> 32 µg/mL

// same read-out, input: CN(CCc1ccc(-n2ccc(NC(=O)N3CCN(C(=O)C(C)(C)N)CC3)nc2=O)cc1)C1CC2(CC(N)C2)C1 (stereo not shown) [Compound 193]
< 8 µg/mL

// same read-out, input: CC(C)(N)C(=O)N1CCN(C(=O)Nc2ccn(-c3ccc(CNC45CC(N)(C4)C5)cc3)c(=O)n2)CC1 [Compound 171]
8 to 32 µg/mL

// same read-out, input: CC(C)(N)C(=O)N1CCN(C(=O)Nc2ccn(-c3ccc(CCN4C[C@@H]5[C@H](C4)[C@H]5C(N)CO)cc3)c(=O)n2)CC1 (stereo partly shown) [Compound 210]
< 8 µg/mL

// same read-out, input: CC(Cc1ccc(-n2ccc(NC(=O)N3CCN(C(=O)C(C)(C)N)CC3)nc2=O)cc1C(F)(F)F)N1C[C@@H]2[C@@H](CN)[C@@H]2C1 (stereo partly shown) [Compound 208]
< 8 µg/mL

// same read-out, input: CC(C)(N)C(=O)N1CCN(C(=O)Nc2ccn(-c3ccc(CN4C[C@@H]5C([C@H](N)CO)[C@@H]5C4)cc3)c(=O)n2)CC1 (stereo partly shown) [Compound 207]
< 8 µg/mL

// same read-out, input: CC(C)(N)C(=O)N1CCN(C(=O)Nc2ccn(-c3ccc(CN4C[C@@H]5C(C(C)(C)N)[C@@H]5C4)cc3)c(=O)n2)CC1 (stereo partly shown) [Compound 206]
< 8 µg/mL

// same read-out, input: CCN(Cc1ccc(-n2ccc(NC(=O)N3CCN(C(=O)C(C)(C)N)CC3)nc2=O)cc1)C12CCC(N)(CC1)CC2 [Compound 172]
< 8 µg/mL

// same read-out, input: CC(Cc1ccc(-n2ccc(NC(=O)N3CCN(C(=O)C(C)(C)N)CC3)nc2=O)cc1)N1CCC2(CC1)CNC2 (stereo not shown) [Compound 163]
< 8 µg/mL

// same read-out, input: CC(C)(N)C(=O)N1CCN(C(=O)Nc2ccn(-c3ccc(CCCN4CCC5(CC4)CC(N)C5)cc3)c(=O)n2)CC1 [Compound 180]
< 8 µg/mL

// same read-out, input: CCN(Cc1ccc(-n2ccc(NC(=O)N3CCN(C(=O)C(C)(C)N)CC3)nc2=O)cc1)C12CC(N)(C1)C2 [Compound 170]
< 8 µg/mL

// same read-out, input: NC[C@H]1CCN(C(=O)Nc2ccn(-c3ccc(CN4C[C@@H]5[C@@H](N)[C@@H]5C4)cc3)c(=O)n2)C1 [Compound 253]
> 32 µg/mL

// same read-out, input: CCC(Cc1ccc(-n2ccc(NC(=O)N3CCN(C(=O)C(C)(C)N)CC3)nc2=O)cc1)N1C[C@@H]2[C@@H](CNC)[C@@H]2C1 (stereo partly shown) [Compound 221]
< 8 µg/mL

// same read-out, input: CC(CN1C[C@@H]2[C@@H](CN)[C@@H]2C1)Oc1ccc(-n2ccc(NC(=O)N3CCN(C(=O)C(C)(C)N)CC3)nc2=O)cc1 (stereo partly shown) [Compound 186]
< 8 µg/mL

// same read-out, input: CC(Cc1ccc(-n2ccc(NC(=O)N3CCN(C(=O)C[C@H](C)N)CC3)nc2=O)cc1)N1C[C@@H]2[C@@H](CN)[C@@H]2C1 (stereo partly shown) [Compound 231]
< 8 µg/mL
